- measurement description: Nrf2 qHTS screen for inhibitors: Validation (AID 493153)
- recorded conditions: A549 ARE-Fluc reporter, 18-24 h; measured here: cytotoxicity max response
- Method: NIH Molecular Libraries Probe Production Network [MLPCN] NIH Chemical Genomics Center [NCGC] […] Assay Protocol Summary: A concentration-response assay was performed with A549 ARE_Fluc cells which are suspended in 5% FBS OPTI-MEM. […] The plate is then incubated at 37deg C at 5% CO2 for 30 minutes before they are read on the ViewLux (Perkin Elmer) for a fluorescent read Ex=405(10)/Em=525(10) for a 3 second exposure, 2x binning, and high gain. […]
Inconclusive results are not listed.
// reported viability change per item
value type: viability change (%)

* O=C(/C=C/c1ccc(O)c(O)c1)OCCc1ccccc1 | -1.73
* Nc1ncnc2c1ncn2[C@@H]1O[C@H](COP(=O)(O)OP(=O)(O)OP(=O)(O)OP(=O)(O)OC[C@@H]2O[C@H](n3cnc4c(N)ncnc43)[C@@H](O)[C@H]2O)[C@@H](O)[C@H]1O | 2.98
* CC1CN(S(=O)(=O)c2cccc3cnccc23)CCN1 (stereo not drawn) | 1.98
* CCCCN1CCC(n2c(=O)[nH]c3ccccc32)CC1 | -4.5
* Cc1nc2sccn2c(=O)c1CCN1CCC(=C(c2ccccc2)c2ccc(F)cc2)CC1 | 0.941
* O=c1[nH]c2cc([N+](=O)[O-])c([N+](=O)[O-])cc2[nH]c1=O | 0.435
* O=c1[nH]c2cc(Cl)c(Cl)cc2[nH]c1=O | 9.5
* CC(C)Cc1ccc([C@H](C)C(=O)O)cc1 | 6.18

----------
- measurement description: Counterscreen qHTS for small molecule stabilizers of the endoplasmic reticulum resident proteome: GLuc-NoTag assay (AID 1508627)
- recorded conditions: Gaussia luciferase NoTag secretion counterscreen, luminescence, thapsigargin 100 nM for final 4 h; series mostly up to 76.4 µM
Results filed as inconclusive are left out. Calls of active or inactive are those of the source. Calls follow the shape of the dose curve; as a rule, active = well fitted inhibition curve with a large enough effect; inconclusive = small, poorly fitted or top-dose-only effect; inactive = no such curve, though single readings can be large or run the other way.
Outcomes: active, inactive

• O=C(O)Cc1ccc2c(c1)C(=O)c1ccccc1CO2 = inactive
• N#C/C(=C\c1ccc(O)c(O)c1)C(=O)c1ccc(O)c(O)c1 = inactive
• CC(C)OC(=O)c1cc(C(=O)OC(C)C)cc([N+](=O)[O-])c1 = inactive
• O=C1CN(/N=C/c2ccc(-c3ccc([N+](=O)[O-])cc3)o2)C(=O)N1 = inactive
• COc1cc(NC(C)CCCN)c2ncccc2c1 (stereo not given) = active

----------
- measurement description: Cytometry Cell-Based qHTS for Inhibitors of the mTORC1 Signaling Pathway in MEF cells (AID 2668)
- recorded conditions: mTORC1 pathway readout; series mostly up to 38.3 µM
Results filed as inconclusive are left out. Active and inactive are the calls of the source. The call rests on the fitted dose curve; in most records, active means well fitted inhibition curve with a large enough effect; inconclusive means small, poorly fitted or top-dose-only effect; inactive means flat fitted curve, though single readings scatter.
Outcomes: yes = active, no = inactive

• CC(C)(C=O)Cc1cc(C(C)(C)C)c(O)c(C(C)(C)C)c1 = no
• c1cnc2c(c1)ccc1cccnc12 = yes
• COc1ccc(/C=C/C(=O)Nc2ccccc2C(=O)O)cc1OC = no
• O=C(c1ccc(OCCCc2cnc[nH]2)cc1)C1CC1 = no
• C=CC(C)=C[C@@]1(C)SC(=O)C(C)=C1O = no
• NCCNC(=O)c1ncsc1-c1cccc(F)c1 = no
• COc1ccc2c(c1)CCC1C2CC[C@@]2(C)C1CC[C@@H]2NCCCCCCN1C(=O)CCC1=O (stereo partly drawn) = yes
• CNC(=O)[C@H]1O[C@@H](n2cnc3c(NCc4cccc(I)c4)ncnc32)[C@H](O)[C@@H]1O = no
• OCC1O[C@H](O)C(Cl)C(O)C1O (stereo partly drawn) = no
• CSc1ccccc1N1CCN(CCCCCC(=O)NC2CCCc3ccccc32)CC1 (stereo not drawn) = yes
• NC(N)=NC(=O)c1nc(Cl)c(N2CCCCCC2)nc1N = no
• Cc1nc2sccn2c(=O)c1CCN1CCC(=C(c2ccccc2)c2ccc(F)cc2)CC1 = no
• COc1ccccc1N1CCN(CCCCNS(=O)(=O)c2cccc3c(N(C)C)cccc23)CC1 = yes
• O=C(O)c1cc(=O)c2ccccc2[nH]1 = no
• CN(C)C(N)=NCCC[C@H](N)C(=O)O = no
• COc1cc(C(O)CO)ccc1OS(=O)(=O)O (stereo not drawn) = no
• C[N+](C)(C)CCOP(=O)(O)OP(=O)([O-])OC[C@H]1O[C@@H](n2ccc(N)nc2=O)[C@H](O)[C@@H]1O = no
• CCCCC#Cc1nc(NC)c2ncn([C@@H]3O[C@H](CO)[C@@H](O)[C@H]3O)c2n1 = no
• O=C(O)/C=C/C(O)c1ccc(Cl)cc1 (stereo not drawn) = no
• O=C1NC(=O)/C(=C/c2ccc3nccnc3c2)S1 = yes
• OCC1O[C@H]([S-])[C@H](O)[C@@H](O)[C@@H]1O.[Au+] (stereo partly drawn) = no
• O=[N+]([O-])c1ccc(CSc2ncnc3c2ncn3[C@@H]2O[C@H](CO)[C@@H](O)[C@H]2O)cc1 = no
• COc1cc(OC)c(/C=C2/C(=O)Nc3ccccc32)c(OC)c1 = no

----------
- Tested on: 3D7
- measurement description: qHTS profiling for inhibitors of Plasmodium falciparum proliferation (AID 504749); note: nearly all actives have a fitted effect of over 60% in size; note: potency is the fitted concentration of half-maximal effect
- recorded conditions: P. falciparum in erythrocytes, SYBR Green DNA, 72 h; series mostly up to 28.7 µM
Results filed as inconclusive are left out. Activity calls are given as the source filed them. Calls come from the whole dose curve; as a rule, active = well fitted inhibition curve with a large enough effect; inconclusive = small, poorly fitted or top-dose-only effect; inactive = flat fitted curve, though single readings scatter.
value type: Potency

* Cc1cc(O)c2ccccc2c1O | 12.6 µM (active)
* C=CC(N)CCC(=O)O (stereo not drawn) | inactive
* COc1cc(/C=C/C(=O)CC(=O)/C=C/c2ccc(O)c(OC)c2)ccc1O | 10 µM (active)
* Cc1[nH]cnc1CN1CCc2c(c3ccccc3n2C)C1=O | inactive
* Cc1c(Nc2ncccc2C(=O)O)cccc1C(F)(F)F | inactive
* O=C(O)COc1ccc(C(=O)c2cccs2)c(Cl)c1Cl | inactive
* Clc1ccccc1-c1nc(-c2ccncc2)no1 | inactive
* O=C(O)c1ccccc1Nc1cccc(C(F)(F)F)c1 | inactive
* CN1CCN(c2cc3c(nn2)Oc2ccccc2N3C)CC1 | inactive
* C=C(Nc1ccc(OCC)cc1)Nc1ccc(OCC)cc1 | inactive
* Nc1c(CC(=O)O)cccc1C(=O)c1ccc(Br)cc1 | inactive
* c1ccc2sc(SN3CCOCC3)nc2c1 | inactive
* O=C(O)Cc1ccc(-c2ccccc2)cc1 | inactive

----------
- target desc: Atrial natriuretic peptide receptor 2 (Homo sapiens) (UniProt P20594)
- Sequence (P20594 whole entry, looked up): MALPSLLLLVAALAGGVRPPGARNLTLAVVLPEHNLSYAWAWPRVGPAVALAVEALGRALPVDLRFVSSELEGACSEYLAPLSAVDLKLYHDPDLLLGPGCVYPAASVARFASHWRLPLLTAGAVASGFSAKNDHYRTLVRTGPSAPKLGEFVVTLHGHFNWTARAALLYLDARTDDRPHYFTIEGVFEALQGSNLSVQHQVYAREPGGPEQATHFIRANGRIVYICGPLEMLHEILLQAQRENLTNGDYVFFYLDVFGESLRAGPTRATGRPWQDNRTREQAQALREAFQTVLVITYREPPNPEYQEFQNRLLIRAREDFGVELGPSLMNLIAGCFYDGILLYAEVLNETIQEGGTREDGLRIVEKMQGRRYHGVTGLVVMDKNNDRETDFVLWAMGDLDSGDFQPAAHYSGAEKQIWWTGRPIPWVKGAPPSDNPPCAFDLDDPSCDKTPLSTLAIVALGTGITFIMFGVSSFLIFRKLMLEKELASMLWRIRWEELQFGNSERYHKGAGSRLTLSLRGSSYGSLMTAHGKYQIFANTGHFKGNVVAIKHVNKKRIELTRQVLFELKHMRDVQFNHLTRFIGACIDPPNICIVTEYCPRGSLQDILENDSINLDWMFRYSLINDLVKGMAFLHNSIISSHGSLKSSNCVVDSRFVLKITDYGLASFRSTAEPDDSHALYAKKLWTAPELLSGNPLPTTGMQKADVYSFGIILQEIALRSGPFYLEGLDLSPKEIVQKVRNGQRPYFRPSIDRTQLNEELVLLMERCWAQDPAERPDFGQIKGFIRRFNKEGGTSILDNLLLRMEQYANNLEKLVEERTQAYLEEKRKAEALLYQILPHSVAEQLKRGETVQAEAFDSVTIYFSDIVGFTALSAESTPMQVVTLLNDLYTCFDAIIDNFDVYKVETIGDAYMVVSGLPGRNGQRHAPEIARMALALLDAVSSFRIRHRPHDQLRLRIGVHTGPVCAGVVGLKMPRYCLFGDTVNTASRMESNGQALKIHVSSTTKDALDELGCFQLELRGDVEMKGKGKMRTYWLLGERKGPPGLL
- measurement description: Natriuretic polypeptide receptor (hNpr2) antagonism - Pilot subtype selectivity assay (AID 1347050)
- recorded conditions: NPR2-expressing cells, cGMP antagonist-mode read-out; series mostly up to 38.3 µM
Records with an inconclusive call do not appear. Activity calls are given as the source filed them. The call rests on the fitted dose curve.
Outcomes: active, inactive

• C[C@@H](NC(=O)/C(C#N)=C/c1ccc(O)c(O)c1)c1ccccc1 = inactive
• O=C(CCCCCN1CCN(c2ccccc2-c2ccccc2)CC1)NC1CCCc2ccccc21 (stereo unspecified) = inactive
• O=C(O)/C=C/C(O)c1ccc(Cl)cc1 (stereo unspecified) = inactive
• CN1CCC[C@H]1c1cccnc1 = inactive
• COc1ccc(/C=C/C(=O)Nc2ccccc2C(=O)O)cc1OC = active
• NC(CCCP(=O)(O)O)C(=O)O (stereo unspecified) = inactive

----------
- measurement description: qHTS of pediatric cancer cell lines to identify multiple opportunities for drug repurposing: Primary screen for control Hh wild type fibroblast cells (AID 1347106);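 note: % is set by controls: 0 for no effect and ±100 for the full control effect; a drop in luminescence marks cytotoxicity and a rise apparent proliferation; nearly all actives have a fitted effect of over 55% in size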
- recorded conditions: Hh wild-type fibroblast viability, CellTiter-Glo luminescence, 48 h; series mostly up to 46 µM
Inconclusive results are not listed. The source made the active and inactive calls. The call rests on the fitted dose curve; in most records, active means well fitted cell-killing curve with a large enough effect; inconclusive means small, poorly fitted or top-dose-only effect; inactive means flat fitted curve, though single readings scatter.
value type: activity change, negative = cytotoxic

- C#CC1(O)CC[C@H]2[C@@H]3CCC4=CCCC[C@@H]4[C@H]3CC[C@@]21C (stereo partly specified): inactive
- Cc1nc2ccccc2n1Cc1ccc(Cl)cc1: inactive
- c1ccc(CCNc2nc(-c3ccccc3)cs2)cc1: inactive
- Nc1ccc(O)c(C(=O)O)c1: inactive
- C#C[C@]1(O)CC[C@H]2[C@@H]3CCc4cc(O)ccc4[C@H]3CC[C@@]21C: inactive
- CN(C)CCn1nnnc1SCC1=C(C(=O)O)N2C(=O)[C@@H](NC(=O)Cc3csc(N)n3)[C@H]2SC1: inactive
- O=C(CCN1CCN(CCO)CC1)N1c2ccccc2Sc2ccc(C(F)(F)F)cc21: inactive
- O=C(OCc1ccccc1)c1ccccc1: inactive
- O=C1CN(/N=C/c2ccc([N+](=O)[O-])o2)C(=O)N1: inactive
- CCCCCCCCCCCCOCCO: inactive
- CCCCC1C(=O)N(c2ccccc2)N(c2ccc(O)cc2)C1=O (stereo unspecified): inactive
- CCCSc1ccc2nc(NC(=O)OC)[nH]c2c1: inactive
- O=C(O)c1ccccc1Nc1cccc(C(F)(F)F)c1: inactive
- CN1CC(=O)N/C1=N/C(=O)Nc1cccc(Cl)c1: inactive
- CCOc1ccc2nc(S(N)(=O)=O)sc2c1: inactive
- CCCC(=O)OC[C@@H](OC(=O)CCC)[C@@H](OC(=O)CCC)[C@H](Cn1c2nc(=O)[nH]c(=O)c-2nc2cc(C)c(C)cc21)OC(=O)CCC: inactive
- CC(C(=O)O)c1ccc(C(=O)c2ccccc2)s1 (stereo unspecified): inactive
- CC(=O)c1ccc(OCC(=O)N2CCCCC2)cc1: inactive
- COc1ccc(-c2cc(=S)ss2)cc1: inactive
- COC(=O)c1nc(Cl)c(Cl)nc1N: inactive
- O=c1[nH]c2ccccc2n1CCCN1CCN(C(c2ccccc2)c2ccccc2)CC1: inactive
